biological target: Ribosyldihydronicotinamide dehydrogenase [quinone] (Homo sapiens, UniProt P16083); also: in the data inactive means no Kd found up to 30 µM
Sequence (P16083 whole entry): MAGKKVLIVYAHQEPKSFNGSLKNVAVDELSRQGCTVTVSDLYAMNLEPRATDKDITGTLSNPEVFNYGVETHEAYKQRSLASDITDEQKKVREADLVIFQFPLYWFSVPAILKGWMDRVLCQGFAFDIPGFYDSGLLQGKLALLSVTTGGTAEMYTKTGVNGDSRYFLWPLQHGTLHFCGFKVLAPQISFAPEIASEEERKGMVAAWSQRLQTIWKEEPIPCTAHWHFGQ
Calls of active or inactive are those of the source.
Entry note: the call must match one of active, inactive

Problem: Identify the outcome logged in this assay for the compound shown: COc1cc2c(Nc3ccc(Cl)c(Cl)c3F)ncnc2cc1OC[C@@H]1C[C@@H]2CN(C)C[C@@H]2C1 [TESEVATINIB]
Solution: inactive

Problem: Identify the outcome logged in this assay for the compound shown: O=C1NC(=O)[C@@H](c2cn3c4c(cccc24)CCC3)[C@@H]1c1c[nH]c2ccccc12 [TIVANTINIB]
Solution: inactive

Problem: Identify the outcome logged in this assay for the compound shown: O=C(Cc1ccc(-c2ccc(OCCN3CCOCC3)cc2)cn1)NCc1ccccc1 [TIRBANIBULIN]
Solution: inactive

Problem: Identify the outcome logged in this assay for the compound shown: COc1ncc(-c2ccc3nccc(-c4ccnnc4)c3c2)cc1NS(=O)(=O)c1ccc(F)cc1F [OMIPALISIB]
Solution: inactive

Problem: Identify the outcome logged in this assay for the compound shown: O=C(NOCCO)c1cc(CN2OCCCC2=O)c(F)c(F)c1Nc1ccc(I)cc1F [RO-4987655]
Solution: inactive

Problem: Identify the outcome logged in this assay for the compound shown: FC(F)(F)c1ccc(/C=C/c2nc(COc3ccc(CCCCn4ccnn4)cc3)co2)cc1 [MUBRITINIB]
Solution: inactive

Problem: Identify the outcome logged in this assay for the compound shown: Cn1cc(C2=C(c3cn(C4CCN(Cc5ccccn5)CC4)c4ccccc34)C(=O)NC2=O)c2ccccc21 [ENZASTAURIN]
Solution: inactive

Problem: Identify the outcome logged in this assay for the compound shown: Cc1nc(Nc2n[nH]c3c2CN(C(=O)N[C@H](CN(C)C)c2ccccc2)C3(C)C)c2sccc2n1 [PF-03758309]
Solution: inactive

Next:
Problem: Identify the outcome logged in this assay for the compound shown: O=C(Nc1c[nH]nc1-c1nc2cc(CN3CCOCC3)ccc2[nH]1)NC1CC1 [AT-9283]
Solution: inactive

Problem: Identify the outcome logged in this assay for the compound shown: O=c1[nH]ccc2cc(OC3CCNCC3)ccc12 [SAR-407899 FREE BASE]
Solution: inactive

Problem: Identify the outcome logged in this assay for the compound shown: C[C@@H](NC(=O)c1ncnc(N)c1Cl)c1ncc(C(=O)Nc2cc(C(F)(F)F)c(Cl)cn2)s1 [TOVORAFENIB]
Solution: inactive

Problem: Identify the outcome logged in this assay for the compound shown: `CC(=O)c1cnc2ccc(-c3cc(Cl)c(O)c(Cl)c3)nc2c1N[C@H]1CC[C@H](CN(C)C)CC1`
Solution: inactive

Problem: Identify the outcome logged in this assay for the compound shown: Cn1cnc2c(F)c(Nc3ccc(Br)cc3F)c(C(=O)NOCCO)cc21 [BINIMETINIB]
Solution: active

Problem: Identify the outcome logged in this assay for the compound shown: CC(C)c1cc(CNc2nc(Nc3cc(C4CC4)[nH]n3)cc(N3CCN(C)CC3)n2)on1 [XL-228]
Solution: inactive

Problem: Identify the outcome logged in this assay for the compound shown: `Cc1nc2cc(-c3nn(C(C)C)c4ncnc(N)c34)ccc2o1`
Solution: inactive

Problem: Identify the outcome logged in this assay for the compound shown: O=C(Nc1nc2cccc(-c3ccc(CN4CCS(=O)(=O)CC4)cc3)n2n1)C1CC1 [FILGOTINIB]
Solution: inactive

Problem: Identify the outcome logged in this assay for the compound shown: Cc1cnc(NC(=O)Nc2cc(Br)c(C)cc2OC[C@@H]2CNCCO2)cn1 [RABUSERTIB]
Solution: inactive

----------
biological target: STE20-like serine/threonine-protein kinase (Homo sapiens, UniProt Q9H2G2); also: in the data inactive means no Kd found up to 30 µM
Sequence (Q9H2G2 whole entry): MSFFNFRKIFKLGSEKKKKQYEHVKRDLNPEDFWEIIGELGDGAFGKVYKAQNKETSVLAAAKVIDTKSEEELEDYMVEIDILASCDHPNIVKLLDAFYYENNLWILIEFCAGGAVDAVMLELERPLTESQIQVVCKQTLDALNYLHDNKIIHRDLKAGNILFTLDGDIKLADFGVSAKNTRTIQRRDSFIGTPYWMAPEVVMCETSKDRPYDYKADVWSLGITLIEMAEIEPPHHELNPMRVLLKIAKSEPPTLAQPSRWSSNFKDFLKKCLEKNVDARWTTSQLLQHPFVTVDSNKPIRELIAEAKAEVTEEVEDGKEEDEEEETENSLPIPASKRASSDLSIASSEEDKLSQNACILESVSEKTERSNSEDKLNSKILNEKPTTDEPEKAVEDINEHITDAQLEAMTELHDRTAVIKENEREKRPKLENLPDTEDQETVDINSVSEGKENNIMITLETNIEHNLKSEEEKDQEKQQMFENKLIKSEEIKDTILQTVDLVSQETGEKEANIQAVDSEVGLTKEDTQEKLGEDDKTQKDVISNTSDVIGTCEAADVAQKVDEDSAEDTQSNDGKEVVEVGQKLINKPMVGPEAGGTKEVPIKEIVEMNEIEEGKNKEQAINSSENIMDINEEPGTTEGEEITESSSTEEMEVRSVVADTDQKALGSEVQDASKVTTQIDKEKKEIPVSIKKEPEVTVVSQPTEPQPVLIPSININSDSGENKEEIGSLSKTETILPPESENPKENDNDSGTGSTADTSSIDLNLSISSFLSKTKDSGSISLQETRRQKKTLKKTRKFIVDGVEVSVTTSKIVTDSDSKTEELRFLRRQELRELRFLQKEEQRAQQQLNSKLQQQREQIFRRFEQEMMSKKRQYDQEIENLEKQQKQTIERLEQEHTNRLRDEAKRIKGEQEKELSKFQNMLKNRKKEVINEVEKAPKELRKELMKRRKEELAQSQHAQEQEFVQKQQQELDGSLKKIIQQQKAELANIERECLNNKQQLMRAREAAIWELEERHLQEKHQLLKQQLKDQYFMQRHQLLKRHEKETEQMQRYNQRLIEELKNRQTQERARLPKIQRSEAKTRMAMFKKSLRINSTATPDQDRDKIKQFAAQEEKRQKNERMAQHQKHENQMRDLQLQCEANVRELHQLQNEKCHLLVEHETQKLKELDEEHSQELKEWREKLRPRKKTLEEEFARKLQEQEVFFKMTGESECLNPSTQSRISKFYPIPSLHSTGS
The source made the active and inactive calls.
Entry note: the call must match one of active, inactive

Field: example entries. Status: answers known.
Problem: Identify the outcome logged in this assay for the compound shown: `COc1ccc(S(=O)(=O)N(C(C)=O)c2ccccc2/C=C/c2cc[n+]([O-])cc2)cc1`
Solution: inactive

Problem: Identify the outcome logged in this assay for the compound shown: `CCn1cc(-c2ccnc3[nH]c(-c4cccc(CN(C)C)c4)cc23)c(-c2ccc(NC(=O)N(C)C)cc2)n1`
Solution: inactive

Problem: Identify the outcome logged in this assay for the compound shown: O=C1NC(=O)[C@@H](c2cn3c4c(cccc24)CCC3)[C@@H]1c1c[nH]c2ccccc12 [TIVANTINIB]
Solution: inactive

Problem: Identify the outcome logged in this assay for the compound shown: `O=C(Nc1nc2cccc(-c3ccc(CN4CCS(=O)(=O)CC4)cc3)n2n1)C1CC1`
Solution: active

Next:
Problem: Identify the outcome logged in this assay for the compound shown: `NC(=O)Nc1cc(-c2cccc(F)c2)sc1C(=O)N[C@H]1CCCNC1`
Solution: active

----------
Calls of active or inactive are those of the source.
Data export: Kd values recorded with UniProt:Q86XP3.
Sequence (Q86XP3 whole entry): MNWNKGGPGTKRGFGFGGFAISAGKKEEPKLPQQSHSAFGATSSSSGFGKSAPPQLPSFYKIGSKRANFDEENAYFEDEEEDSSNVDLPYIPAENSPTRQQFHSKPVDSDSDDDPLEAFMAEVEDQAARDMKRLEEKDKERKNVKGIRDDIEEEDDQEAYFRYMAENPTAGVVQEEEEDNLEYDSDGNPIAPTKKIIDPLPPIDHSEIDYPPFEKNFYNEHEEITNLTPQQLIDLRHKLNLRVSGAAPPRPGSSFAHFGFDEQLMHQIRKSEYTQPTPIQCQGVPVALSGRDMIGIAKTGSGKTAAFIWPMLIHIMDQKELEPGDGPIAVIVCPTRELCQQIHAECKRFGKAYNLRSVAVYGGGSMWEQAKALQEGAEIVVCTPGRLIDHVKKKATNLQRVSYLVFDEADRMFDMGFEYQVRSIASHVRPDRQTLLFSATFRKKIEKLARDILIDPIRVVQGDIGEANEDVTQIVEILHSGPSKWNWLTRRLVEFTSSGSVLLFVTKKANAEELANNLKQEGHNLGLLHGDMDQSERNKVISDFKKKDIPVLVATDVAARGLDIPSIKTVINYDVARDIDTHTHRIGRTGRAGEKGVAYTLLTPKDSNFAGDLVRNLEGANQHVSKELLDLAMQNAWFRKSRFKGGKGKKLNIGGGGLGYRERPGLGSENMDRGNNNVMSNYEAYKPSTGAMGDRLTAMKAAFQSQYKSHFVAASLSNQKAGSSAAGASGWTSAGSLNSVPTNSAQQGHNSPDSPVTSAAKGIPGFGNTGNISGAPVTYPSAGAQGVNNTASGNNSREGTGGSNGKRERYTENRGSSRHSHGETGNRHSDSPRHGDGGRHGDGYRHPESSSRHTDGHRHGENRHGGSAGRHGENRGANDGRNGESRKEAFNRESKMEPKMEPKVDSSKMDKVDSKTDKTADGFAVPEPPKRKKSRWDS

Lab entry: UniProt:Q86XP3 assay, compound `CO[C@H]1C[C@@H]2CC[C@@H](C)[C@@](O)(O2)C(=O)C(=O)N2CCCC[C@H]2C(=O)O[C@H]([C@H](C)C[C@@H]2CC[C@@H](OC(=O)C(C)(CO)CO)[C@H](OC)C2)CC(=O)[C@H](C)/C=C(\C)[C@@H](O)[C@@H](OC)C(=O)[C@H](C)C[C@H](C)/C=C/C=C/C=C/1C` , Kd = > 30 µM (inactive)

Lab entry: UniProt:Q86XP3 assay, compound `NC1(c2ccc(-c3nc4ccn5c(=O)[nH]nc5c4cc3-c3ccccc3)cc2)CCC1` , Kd = > 30 µM (inactive)

Lab entry: UniProt:Q86XP3 assay, compound `O=C(Nc1cc(C(F)(F)F)cc(C(F)(F)F)c1)c1cc(Cl)ccc1O` , Kd = > 30 µM (inactive)

Next:
Lab entry: UniProt:Q86XP3 assay, compound `CCn1c(C(=O)N(C2CC2)C2CC2)cc2c3c(ncn3C)c(Nc3cc(C)n(C)n3)nc21` , Kd = > 30 µM (inactive)

----------
target: Tyrosine-protein kinase Fyn (Homo sapiens); also: in the data inactive means no Kd found up to 30 µM
Sequence (P06241 whole entry): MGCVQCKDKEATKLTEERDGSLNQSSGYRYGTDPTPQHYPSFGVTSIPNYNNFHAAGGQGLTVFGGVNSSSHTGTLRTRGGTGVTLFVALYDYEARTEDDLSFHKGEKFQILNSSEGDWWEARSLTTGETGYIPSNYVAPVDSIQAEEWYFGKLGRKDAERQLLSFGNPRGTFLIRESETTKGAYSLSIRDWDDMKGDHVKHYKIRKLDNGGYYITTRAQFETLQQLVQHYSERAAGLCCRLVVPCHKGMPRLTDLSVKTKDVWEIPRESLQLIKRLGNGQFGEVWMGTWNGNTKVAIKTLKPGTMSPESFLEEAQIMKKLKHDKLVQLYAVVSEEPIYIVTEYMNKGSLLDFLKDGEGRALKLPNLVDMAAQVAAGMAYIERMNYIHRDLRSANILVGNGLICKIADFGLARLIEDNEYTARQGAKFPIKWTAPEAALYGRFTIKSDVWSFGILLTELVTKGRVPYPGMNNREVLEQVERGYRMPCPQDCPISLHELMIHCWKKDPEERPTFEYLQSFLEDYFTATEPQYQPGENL
Calls of active or inactive are those of the source.
Entry note: the call must match one of TRUE for active, FALSE for inactive

Field: example entries. Status: answers known.
Problem: Identify the outcome logged in this assay for the compound shown: `Cc1csc(-c2nnc(Nc3ccc(Oc4ncccc4-c4ccnc(N)n4)cc3)c3ccccc23)c1`
Solution: FALSE

Problem: Identify the outcome logged in this assay for the compound shown: `CC(=O)c1cnc2ccc(-c3cc(Cl)c(O)c(Cl)c3)nc2c1N[C@H]1CC[C@H](CN(C)C)CC1`
Solution: TRUE

Problem: Identify the outcome logged in this assay for the compound shown: `CO[C@H]1C[C@@H]2CC[C@@H](C)[C@@](O)(O2)C(=O)C(=O)N2CCCC[C@H]2C(=O)O[C@H]([C@H](C)C[C@@H]2CC[C@@H](O)[C@H](OC)C2)CC(=O)[C@H](C)/C=C(\C)[C@@H](O)[C@@H](OC)C(=O)[C@H](C)C[C@H](C)/C=C/C=C/C=C/1C`
Solution: FALSE

Next:
Problem: Identify the outcome logged in this assay for the compound shown: `COc1c(OCCCN2CCOCC2)ccc2c1N=C(NC(=O)c1cnc(N)nc1)N1CCN=C21`
Solution: FALSE

Problem: Identify the outcome logged in this assay for the compound shown: `CCS(=O)(=O)c1cccc(-c2cc(C(=O)NC3CCN(C)CC3)c(C)c3[nH]c4ncc(C)cc4c23)c1`
Solution: TRUE

Problem: Identify the outcome logged in this assay for the compound shown: `FC(F)(F)c1ccc(/C=C/c2nc(COc3ccc(CCCCn4ccnn4)cc3)co2)cc1`
Solution: FALSE

----------
Data export: Kd values recorded with Dual specificity testis-specific protein kinase 2 (Homo sapiens, UniProt Q96S53).
Sequence (Q96S53 whole entry): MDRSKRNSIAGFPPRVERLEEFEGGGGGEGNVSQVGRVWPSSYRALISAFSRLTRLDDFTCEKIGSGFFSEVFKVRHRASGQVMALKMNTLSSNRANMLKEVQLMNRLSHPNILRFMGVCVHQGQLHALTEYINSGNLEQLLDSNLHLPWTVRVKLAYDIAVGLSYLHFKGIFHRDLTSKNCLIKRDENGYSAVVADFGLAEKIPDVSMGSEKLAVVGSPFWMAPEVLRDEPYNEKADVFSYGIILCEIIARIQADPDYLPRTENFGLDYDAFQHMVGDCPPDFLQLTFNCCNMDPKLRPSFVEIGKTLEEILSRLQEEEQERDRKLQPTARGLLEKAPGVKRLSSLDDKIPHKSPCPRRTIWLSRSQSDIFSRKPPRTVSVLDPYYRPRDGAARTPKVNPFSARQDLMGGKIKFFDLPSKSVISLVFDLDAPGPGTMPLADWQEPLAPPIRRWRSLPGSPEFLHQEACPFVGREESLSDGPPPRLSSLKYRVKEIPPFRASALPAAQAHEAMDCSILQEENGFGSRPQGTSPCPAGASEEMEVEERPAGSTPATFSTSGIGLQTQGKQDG
Active and inactive are the calls of the source.

Reference set (4 entries):
Value of measured Kd for the entry `C[C@@H](NC(=O)c1ncnc(N)c1Cl)c1ncc(C(=O)Nc2cc(C(F)(F)F)c(Cl)cn2)s1` : > 30 µM (inactive)

Value of measured Kd for the entry `CO[C@H]1C[C@@H]2CC[C@@H](C)[C@@](O)(O2)C(=O)C(=O)N2CCCC[C@H]2C(=O)O[C@H]([C@H](C)C[C@@H]2CC[C@@H](O)[C@H](OC)C2)CC(=O)[C@H](C)/C=C(\C)[C@@H](O)[C@@H](OC)C(=O)[C@H](C)C[C@H](C)/C=C/C=C/C=C/1C` : > 30 µM (inactive)

Value of measured Kd for the entry `CO[C@H]1C[C@@H]2CC[C@@H](C)[C@@](O)(O2)C(=O)C(=O)N2CCCC[C@H]2C(=O)O[C@H]([C@H](C)C[C@@H]2CC[C@@H](OP(C)(C)=O)[C@H](OC)C2)CC(=O)[C@H](C)/C=C(\C)[C@@H](O)[C@@H](OC)C(=O)[C@H](C)C[C@H](C)/C=C/C=C/C=C/1C` : > 30 µM (inactive)

Value of measured Kd for the entry `CCn1cc(-c2ccnc3[nH]c(-c4cccc(CN(C)C)c4)cc23)c(-c2ccc(NC(=O)N(C)C)cc2)n1` : > 30 µM (inactive)

Next:
Value of measured Kd for the entry `COc1cc2c(Nc3ccc(Cl)c(Cl)c3F)ncnc2cc1OC[C@@H]1C[C@@H]2CN(C)C[C@@H]2C1` : > 30 µM (inactive)
